B1: ZNF449 (parent)
chain: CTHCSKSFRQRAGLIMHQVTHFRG

Variants of: B1
ASSAY_NAME: protein stability index of a GFP-peptide fusion (GPS, HEK-293T) (PSI 1-6); higher = more stable;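 note: lentivirally expressed fusions sorted by FACS into six bins by GFP to DsRed ratio, PSI derived from sequencing read proportions per bin multiplied by bin number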
DETAILS: c terminus: a fixed tail appended
Label No if protein stability index falls below 2; label Yes in every other case.

The following variants have reported results that may help.
INSERT INTO measurements (mutant, discrete_label) VALUES
  ('H3E', 'Yes'),
  ('C1N', 'No'),
  ('S5T', 'No'),
  ('F8T', 'No'),
  ('S5W', 'Yes'),
  ('V19S', 'No'),
  ('K6Q', 'Yes'),
  ('L14Y', 'No'),
  ('H3S', 'No'),
  ('A12T', 'Yes');

Does the reported protein stability index for H21W fall at or above the 2 mark?
Yes
